The following compounds are shown together with reported IC50 values.
- Assay system: AXL (Homo sapiens, UniProt P30530)
- Sequence (P30530 26-894): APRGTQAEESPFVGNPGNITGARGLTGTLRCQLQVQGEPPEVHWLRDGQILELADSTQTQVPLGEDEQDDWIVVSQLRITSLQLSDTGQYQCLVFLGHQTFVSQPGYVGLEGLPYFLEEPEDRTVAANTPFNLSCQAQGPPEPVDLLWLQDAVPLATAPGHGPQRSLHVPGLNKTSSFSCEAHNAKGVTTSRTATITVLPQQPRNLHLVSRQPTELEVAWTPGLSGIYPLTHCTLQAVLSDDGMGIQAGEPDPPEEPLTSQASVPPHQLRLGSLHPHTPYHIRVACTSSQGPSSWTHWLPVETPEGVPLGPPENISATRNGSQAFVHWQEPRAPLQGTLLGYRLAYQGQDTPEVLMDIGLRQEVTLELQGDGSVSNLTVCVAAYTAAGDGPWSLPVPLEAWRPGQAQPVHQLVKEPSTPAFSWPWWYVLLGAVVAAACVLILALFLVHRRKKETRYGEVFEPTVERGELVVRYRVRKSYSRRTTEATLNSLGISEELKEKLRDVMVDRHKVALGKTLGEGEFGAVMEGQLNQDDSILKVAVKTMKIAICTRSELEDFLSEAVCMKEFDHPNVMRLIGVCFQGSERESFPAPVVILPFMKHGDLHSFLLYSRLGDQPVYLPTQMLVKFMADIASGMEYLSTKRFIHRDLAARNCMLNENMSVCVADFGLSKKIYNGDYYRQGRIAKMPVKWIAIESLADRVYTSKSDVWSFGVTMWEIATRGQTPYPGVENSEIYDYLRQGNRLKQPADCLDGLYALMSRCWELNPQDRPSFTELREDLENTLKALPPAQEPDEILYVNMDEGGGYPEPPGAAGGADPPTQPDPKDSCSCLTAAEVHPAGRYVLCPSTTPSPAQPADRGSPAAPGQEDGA

Completed entries (count: 6):
compound="CCCC(C)Nc1ncc2c(=O)n(CCN(C)C)cc([C@H]3CC[C@H](O)CC3)c2n1 (stereo partly drawn) [Compound 169]" parameter=IC50 test_value="1 to 10 µM"
compound="CCCCNc1ncc2c(N(C)C)ncc([C@H]3CC[C@H](O)CC3)c2n1 [Compound 123]" parameter=IC50 test_value="0.1 to 1 µM"
compound="CC(=O)N1[C@@H]2CC[C@H]1C[C@H](Oc1ncc([C@H]3CC[C@H](O)CC3)c3nc(N[C@@H](C)CC(F)(F)F)ncc13)C2 [Compound 436]" parameter=IC50 test_value="≤ 0.1 µM"
compound="CC(C)Nc1ncc2c(OC3CCOCC3)ncc(-c3cccc(CC#N)c3)c2n1 [Compound 274]" parameter=IC50 test_value="0.1 to 1 µM"
compound="C[C@@H](CC(F)(F)F)Nc1ncc2c(OC3C[C@H]4CC[C@@H](C3)N4C)ncc([C@H]3CC[C@H](O)CC3)c2n1 (stereo partly drawn) [Compound 370]" parameter=IC50 test_value="≤ 0.1 µM"
compound="C[C@@H](CC(F)(F)F)Nc1ncc2c(OC3CCN(C)CC3)ncc([C@H]3CC[C@H](O)CC3)c2n1 [Compound 352]" parameter=IC50 test_value="0.1 to 1 µM"

## Input Look up and report measured IC50 for this entry: COC[C@H](C)Nc1ncc2c(OC3CCOCC3)ncc(-c3ccc(N4CCN(C)CC4)cc3)c2n1 [Compound 279]
## Output 1 to 10 µM

## Input Look up and report measured IC50 for this entry: CCOc1ncc(C2CCN(C)CC2)c2nc(N[C@@H](C)CC)ncc12 [Compound 215]
## Output 1 to 10 µM

## Input Look up and report measured IC50 for this entry: CCCC(C)Nc1ncc2c(N(C)C3CCN(C)CC3)ncc([C@H]3CC[C@H](O)CC3)c2n1 (stereo partly drawn) [Compound 146]
## Output 1 to 10 µM
